# Assayed target: T1, human TrkA receptor on the cell surface (human, UniProt P04629 33-796)
# T1 construct: whole, on cells; PC12-hTrkA: high density; also called hTrkA; huTrkA
# T1 sequence (P04629 33-796): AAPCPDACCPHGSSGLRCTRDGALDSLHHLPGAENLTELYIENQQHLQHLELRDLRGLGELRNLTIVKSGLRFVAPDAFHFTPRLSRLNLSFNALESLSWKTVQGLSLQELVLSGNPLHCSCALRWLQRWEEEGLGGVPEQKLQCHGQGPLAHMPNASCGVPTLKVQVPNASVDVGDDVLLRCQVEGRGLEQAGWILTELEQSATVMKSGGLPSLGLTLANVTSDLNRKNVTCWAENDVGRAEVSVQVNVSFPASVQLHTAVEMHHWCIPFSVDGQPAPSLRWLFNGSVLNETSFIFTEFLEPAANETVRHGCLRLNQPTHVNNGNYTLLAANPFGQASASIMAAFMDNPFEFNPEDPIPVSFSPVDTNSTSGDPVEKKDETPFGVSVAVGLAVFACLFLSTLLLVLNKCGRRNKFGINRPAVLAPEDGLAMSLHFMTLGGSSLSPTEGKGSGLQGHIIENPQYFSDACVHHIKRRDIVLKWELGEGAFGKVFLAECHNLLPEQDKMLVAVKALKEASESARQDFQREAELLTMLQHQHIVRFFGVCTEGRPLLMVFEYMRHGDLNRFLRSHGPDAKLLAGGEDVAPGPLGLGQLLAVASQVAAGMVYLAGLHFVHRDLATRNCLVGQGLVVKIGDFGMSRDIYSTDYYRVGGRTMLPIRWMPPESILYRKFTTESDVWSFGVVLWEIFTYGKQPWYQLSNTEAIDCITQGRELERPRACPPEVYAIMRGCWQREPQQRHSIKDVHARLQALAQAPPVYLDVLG
# Experiment notes: flow cytometry on TF-1 cells, 4 µg/ml
Measurement kind: Fold Increase (fold)
Answer format: numeric, fold implied, no suffix.

Here are 2 binders together with their reported answers.
>  <Binder>
BXhVH2VL8 (antibody, human IgG1, V domains shown, Human IgG1 constant regions (IgG1 expression vectors); COS-7 supernatant; also called hVH2/hVL8) VH: EVQLLESGGGLVQPGGSLRLSCAASGFTFSTYTMSWVRQTPGKRLEWVAYISKGGGSTYYPDTVKGRFTISRDNSKNTLYLQMNSLRAEDTAVYYCAKGAMYGNDFFYPMDYWGQGTTVTVSS VL: QIVLTQSPATLSLSPGEEATLSCSASSSVSYMHWYQQKSGTSPRLLIYTTSNLASGIPSRFSGSGSGTFYTLTISSLEPEDAADYYCHQWSSYPWTFGGGTKLEIK

>  <Number>
1.9

$$$$
>  <Binder>
BXhVH2VL2 (antibody, human IgG1, V domains shown, Human IgG1 constant regions (IgG1 expression vectors); COS-7 supernatant; also called hVH2/hVL2) VH: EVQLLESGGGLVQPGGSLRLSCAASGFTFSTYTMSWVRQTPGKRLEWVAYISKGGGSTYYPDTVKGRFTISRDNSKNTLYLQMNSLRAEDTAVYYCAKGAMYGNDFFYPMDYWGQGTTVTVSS VL: EIVLTQSPATLSLSPGERATLSCSASSSVSYMHWYQQKPGQSPRLLIYTTSNLASGIPSRFSGSGSGTDFTLTISSLEPEDAADYYCHQWSSYPWTFGQGTKLEIK

>  <Number>
1.8

$$$$

Now look at this entry.
**Query** Which measured Fold Increase value corresponds to BXhVH1VL2 (antibody, human IgG1, V domains shown, Human IgG1 constant regions (IgG1 expression vectors); COS-7 supernatant; also called hVH1/hVL2) VH: EVKLLESGGGLVQPGGSLRLSCAASGFTFSTYTMSWVRQTPGKGLEWVAYISKGGGSTYYPDTVKGRFTISRDNSKNTLYLQMNSLRAEDTAVYYCAKGAMYGNDFFYPMDYWGQGTTVTVSS VL: EIVLTQSPATLSLSPGERATLSCSASSSVSYMHWYQQKPGQSPRLLIYTTSNLASGIPSRFSGSGSGTDFTLTISSLEPEDAADYYCHQWSSYPWTFGQGTKLEIK ?
**Result** 1.3

FYI, the data here is from patent US20110145941A1.
